System: anti-p,p′-DDE antibody (mouse polyclonal antibody, sera)
Experiment: indirect competitive ELISA
Type: binding
Details: pooled mouse sera; (IC50 p,p′-DDE/IC50 chemicals) × 100
Rule: % cross-reactivity of 7% or more gives Yes; anything lower gives No.

{"compound": "Clc1ccc(C(c2ccc(Cl)cc2)C(Cl)(Cl)Cl)cc1", "qualitative_label": "No"}
{"compound": "Clc1ccc(Cc2ccc(Cl)cc2)cc1", "qualitative_label": "Yes"}
{"compound": "Clc1ccc(C(c2ccc(Cl)cc2)C(Cl)Cl)cc1", "qualitative_label": "Yes"}
{"compound": "Clc1ccc(C(c2ccccc2Cl)C(Cl)Cl)cc1 (stereo not shown)", "qualitative_label": "No"}
{"compound": "O=C(c1ccc(Cl)cc1)c1ccc(Cl)cc1", "qualitative_label": "No"}
{"compound": "ClC(Cl)=C(c1ccc(Cl)cc1)c1ccc(Cl)cc1", "qualitative_label": "Yes"}

Query :: State whether the measured % cross-reactivity reaches 7%, counting equality as reaching it, for "ClC(Cl)=C(c1ccc(Cl)cc1)c1ccccc1Cl"
Result :: No

Query :: Would you say "OC(c1ccc(Cl)cc1)c1ccc(Cl)cc1" shows % cross-reactivity at minimum 7%?
Result :: Yes

Query :: Quick check, % cross-reactivity >= 7%? "O=C(O)C(c1ccc(Cl)cc1)c1ccc(Cl)cc1"
Result :: No

Query :: For this compound, is measured % cross-reactivity 7% or higher? "OCC(c1ccc(Cl)cc1)c1ccc(Cl)cc1"
Result :: No
